test: Stability in the human liver S9; format: in vitro ADME; conditions: human liver S9, 1 μM
ASSAY METRIC: half-life at 1 μM (min)
The reply should be a number in min, with the unit left off.

>  <COMPOUND>
CC(C)OC(=O)[C@H](C)N[P@](=O)(CO[C@H](C)Cn1cnc2c(N)ncnc21)OCc1ccccc1 (single isomer, unassigned)

>  <READOUT UNITS>
min

>  <RECORDED RESULT>
10.1

$$$$
>  <COMPOUND>
CCOc1ccc2ccc(=O)oc2c1

>  <READOUT UNITS>
min

>  <RECORDED RESULT>
82.2

$$$$
>  <COMPOUND>
CC(C)OC(=O)[C@H](C)N[P@@](=O)(CO[C@H](C)Cn1cnc2c(N)ncnc21)OCc1ccccc1 (single isomer, unassigned)

>  <READOUT UNITS>
min

>  <RECORDED RESULT>
9.9

$$$$
>  <COMPOUND>
Cc1ccccc1CO[P@@](=O)(CO[C@H](C)Cn1cnc2c(N)ncnc21)N[C@@H](C)C(=O)OC(C)C

>  <READOUT UNITS>
min

>  <RECORDED RESULT>
4.7

$$$$

// below: half-life at 1 μM requested for another compound
# input Determine from records and report half-life at 1 μM for "CC(C)OC(=O)[C@H](C)N[P@](=O)(CO[C@H](C)Cn1cnc2c(N)ncnc21)Oc1ccccc1"
# output 3.3

----------
assay: in vivo; parameters: species or system ICR mice; conditions: male, ICR, mouse, 50 mg/kg, Cliver tissue
ASSAY METRIC: concentration at 3 h (nM)
Express your answer in nM, writing the number without its unit.

# input Give the reported concentration at 3 h for this compound. CC(C)OC(=O)[C@H](C)NP(=O)(CO[C@H](C)Cn1cnc2c(N)ncnc21)OCc1ccccc1 (stereo partly shown) [Compound 3]
# output 375

----------
Overview of reported % 360 min (residue percentage) across a group of compounds:
experiment: Stability in the simulated gastric fluid; type: in vitro ADME; details: 10 μM, 360 min
Number in %, nothing else.

# input Input CC(C)OC(=O)[C@H](C)N[P@](=O)(CO[C@H](C)Cn1cnc2c(N)ncnc21)Oc1ccccc1 [GS-7340] , output reported % 360 min (residue percentage).
# output 23.41

# input Please list % 360 min (residue percentage) recorded for the compound CC(C)OC(=O)[C@H](C)N[P@@](=O)(CO[C@H](C)Cn1cnc2c(N)ncnc21)OCc1ccccc1 (single isomer, unassigned) [Compound 3a]
# output 14.41

# input # return recorded % 360 min (residue percentage) for input CC(C)OC(=O)[C@H](C)N[P@](=O)(CO[C@H](C)Cn1cnc2c(N)ncnc21)OCc1ccccc1 (single isomer, unassigned) [Compound 3b]
# output 17.28

# input Using the record for Cc1ccccc1CO[P@@](=O)(CO[C@H](C)Cn1cnc2c(N)ncnc21)N[C@@H](C)C(=O)OC(C)C [Compound 7b] , state its measured % 360 min (residue percentage).
# output 13.16

----------
test: Stability in the human liver S9; assay type: in vitro ADME; settings: human liver S9, 1 μM, scaled per kg
Please note: label 1 applies when CLlint(s9) is 0.5 mL/min/kg or greater, and label 0 applies otherwise.

>  <COMPOUND>
CC(C)OC(=O)[C@H](C)N[P@](=O)(CO[C@H](C)Cn1cnc2c(N)ncnc21)Oc1ccccc1

>  <CATEGORY>
label 1

$$$$
>  <COMPOUND>
CCOc1ccc2ccc(=O)oc2c1

>  <CATEGORY>
label 0

$$$$
>  <COMPOUND>
Cc1ccccc1CO[P@@](=O)(CO[C@H](C)Cn1cnc2c(N)ncnc21)N[C@@H](C)C(=O)OC(C)C

>  <CATEGORY>
label 1

$$$$
>  <COMPOUND>
CC(C)OC(=O)[C@H](C)N[P@](=O)(CO[C@H](C)Cn1cnc2c(N)ncnc21)OCc1ccccc1 (single isomer, unassigned)

>  <CATEGORY>
label 0

$$$$

For the next question, use this compound.
# input Test whether the compound CC(C)OC(=O)[C@H](C)N[P@@](=O)(CO[C@H](C)Cn1cnc2c(N)ncnc21)OCc1ccccc1 (single isomer, unassigned) records CLlint(s9) of 0.5 mL/min/kg or higher.
# output label 0
